- Test system: RXF 393 renal
- Procedure details: NCI-60 one-dose screen, 48 h
- Protocol conditions: 10 µM unless noted
This is part of a sample that, as a whole, favours compounds with a hit. Of some 83,000 tested, about 20% had one in any assay. Active and inactive are the calls of the source. Rule for the calls: active = growth percent below 10; inactive = the rest.
Would you mind answering with one of these outcomes? 1 = active, 0 = inactive

Outcome logged for O=C(O)CNCP(=O)(O)O in this assay:
0

What did the test return for N#Cc1ccc(Cl)cc1 ?
0

What outcome does the record of this test show for Nc1c(Cl)c(Cl)nc(C(=O)O)c1Cl ?
0

// outcome(item) with item = C[C@]12CC[C@H]3[C@@H](CC=C4c5nc(-c6ccc(Br)cc6)sc5CC[C@@]43C)[C@@H]1CC[C@@H]2O
1

Call for entry Cc1cc(N(CCCl)CCCl)ccc1C=Nc1ccc(-c2csc(-c3ccccc3)n2)cc1 :
0

Dear all, I need the recorded test outcome for C/C(=C(\c1ccc(OCCN2CCOCC2)cc1)c1ccc(OC(=O)Cc2ccccc2)cc1)c1ccc(Cl)cc1 , thank you.
0

Recorded test outcome, item COc1ccc(C(C#N)C(C)=O)cc1 (stereo unspecified)
0

Hi team, can someone confirm the assay call for CCCCCCCCCCCCCCCC[N+](C)(C)C ?
1

Hi team, can someone confirm the assay call for CC(=O)OC1CC2(O)C(CCC3(C)C(c4ccc(=O)oc4)CCC32O)C2(C)CCC(OC3OC(CO)C(O)C(O)C3O)C=C12 (stereo unspecified) ?
1

Would you mind telling me which call this test gave COc1ccc2c(c1)c(-c1nc(-c3c[nH]c4ncccc34)cs1)cn2CCCCN1CCOCC1 ?
0

Give the logged outcome of this assay for the following compound: Cc1ccccc1-n1c(/C=C\c2ccccn2)nc2ccccc2c1=O
1

* * *

- System: M14 melanoma
- Procedure details: NCI-60 one-dose screen, 48 h
- Protocol conditions: 10 µM unless noted
About 83,000 compounds went through this panel and 20% of them were active in at least one assay; those are over-represented in the sample as a whole. Active and inactive are the calls of the source. The calls were made as follows: active = growth percent below 10; inactive = the rest.
Can you answer with just one of these options? active, inactive

Would you please look over these solved cases?
>  <Compound>
CN1C2CCC1[C@@H](COC(=O)c1ccccc1)[C@@H](O)C2 (stereo not given in full)

>  <Label class>
inactive

$$$$
>  <Compound>
O=C(NC1=NCC[Se]1)c1ccccc1O

>  <Label class>
inactive

$$$$
>  <Compound>
C[C@@H]1C/C=C\C(=O)O[C@H](/C=C/C#C/C=C/C(C)(C)[C@@H](O)c2cccc(O)c2Br)[C@@H](C)/C=C/[C@H](C)C[C@H](OC(N)=O)C1

>  <Label class>
active

$$$$
>  <Compound>
C#COc1cccc(Nc2ncnc3cc(NC(=O)CF)ccc23)c1

>  <Label class>
inactive

$$$$

Continue with the compound presented below.
Dear colleague, could you share the recorded outcome for CCCCn1c(=O)c(C(=O)NCc2ccccc2Cl)c(O)c2ccccc21 when you have a moment?
inactive

* * *

- System: HT29 colon
- Procedure details: NCI-60 one-dose screen, 48 h (100 = growth as untreated, 0 = no growth, -100 = all killed)
- Protocol conditions: 10 µM unless noted
About 83,000 compounds went through this panel and 20% of them were active in at least one assay; those are over-represented in the sample as a whole.
Observed property: growth (%)
Expressed in %, but write only the number.

Please review the following examples before continuing.
>  <Compound>
Cc1ccc(P(=O)(O)O)cc1

>  <Measurement units>
%

>  <growth>
109

$$$$
>  <Compound>
COc1ccc(CN)cc1OC

>  <Measurement units>
%

>  <growth>
107

$$$$
>  <Compound>
C/C(=C\c1ccn(-c2ccc(N)cc2F)n1)[C@@H]1C[C@@H]2O[C@]2(C)CCC[C@H](C)[C@H](O)[C@@H](C)C(=O)C(C)(C)[C@@H](O)CC(=O)O1

>  <Measurement units>
%

>  <growth>
13.1

$$$$
>  <Compound>
C[C@]12CC[C@H](O)C[C@@H]1CC[C@@H]1[C@@H]2CC[C@]2(C)OC(=O)CC[C@@H]12

>  <Measurement units>
%

>  <growth>
79.6

$$$$
>  <Compound>
COC12CC3(C)C(C4=CC(=O)OC4)CCC3(O)C3CCC4=CC(=O)CCC4(CO1)C32 (stereo unspecified)

>  <Measurement units>
%

>  <growth>
103

$$$$

Here is the next item to consider.
Sample CC(=O)c1cccc(S(=O)(=O)F)c1 — what was its growth?
104

* * *

- Test system: SNB-75 CNS
- Procedure details: NCI-60 one-dose screen, 48 h
- Protocol conditions: 10 µM unless noted
This is part of a sample that, as a whole, favours compounds with a hit. Of some 83,000 tested, about 20% had one in any assay. Active and inactive are the calls of the source. How the source made its calls: active means growth percent below 10; inactive means the rest.
A correct response names exactly one class from T for active, F for inactive

>  <Molecule>
CC[C@H](C)[C@H](NC(=O)CN(C)C)C(=O)N(C)[C@H](C[C@@H](OC(C)=O)c1nc(C(=O)NC23C4C5C2C2C3C4C52C(=O)OC)cs1)C(C)C (some centres undefined)

>  <Tested system>
SNB-75 CNS

>  <Label class>
F

$$$$
>  <Molecule>
COc1ccn(C)c(=O)c1C#N

>  <Tested system>
SNB-75 CNS

>  <Label class>
F

$$$$
>  <Molecule>
COC(=O)CCP(CCC(=O)OC)c1ccccc1

>  <Tested system>
SNB-75 CNS

>  <Label class>
F

$$$$
>  <Molecule>
Cc1cc2c(cc1-c1ccnc(/C=C/C(=O)O)c1)C(C)(C)CCC2(C)C

>  <Tested system>
SNB-75 CNS

>  <Label class>
F

$$$$

Please let me know the test result on file for CCCCOCCOP(=O)(OCCOCCCC)OCCOCCCC .
F

Could you please tell me the result logged for CC(=O)Cc1ccc2c(c1)OCO2 in this assay?
F

Could you kindly confirm the outcome this assay logged for CC1=C(C)C(=O)O[C@@H]([C@](C)(O)[C@]2(O)CC[C@@]3(O)[C@@H]4C[C@H]5O[C@]56CC=CC(=O)[C@]6(C)[C@H]4CC[C@]23C)C1 ?
T

// outcome(item) with item = N[C@@H](CCC(=O)CCl)C(=O)O
F

What classification did CCC1(CCSC#N)C(=O)NC(=O)NC1=O end up with in this test?
F

* * *

- Test system: OVCAR-5 ovarian
- Procedure details: NCI-60 one-dose screen, 48 h (100 = growth as untreated, 0 = no growth, -100 = all killed)
- Protocol conditions: 10 µM unless noted
About 83,000 compounds went through this panel and 20% of them were active in at least one assay; those are over-represented in the sample as a whole. The source made the active and inactive calls. How the source made its calls: active means growth percent below 10; inactive means the rest.
Observed property: growth

Example cases with answers are listed next.
>  <Compound>
COC1C(O)CC(OC2CC(Oc3cc4cc5c(c(O)c4c(O)c3C)C(=O)[C@@H](OC3CC(OC4CC(OC6CC(C)(O)C(OC(C)=O)C(C)O6)C(O)C(C)O4)C(O)C(C)O3)[C@H]([C@H](OC)C(=O)[C@@H](O)[C@@H](C)O)C5)OC(C)C2OC(C)=O)OC1C (some centres not stated)

>  <growth>
-67% (active)

$$$$
>  <Compound>
Cc1cc(C(C)(C)C)ccc1O

>  <growth>
120% (inactive)

$$$$
>  <Compound>
O=C(O)c1cc([N+](=O)[O-])cc([N+](=O)[O-])c1

>  <growth>
104% (inactive)

$$$$

Any idea what its growth is? The compound is CC1=C([Te]c2ccccc2)C(=O)c2ccccc2C1=O
-72.3% (active)

Quick check: growth of C/C=C(/C)C(=O)O[C@H]1CC[C@@]2(C)[C@@H]3CC[C@H]4[C@]5(O)C[C@H](O)[C@@]6(O)[C@@H](CN7C[C@@H](C)CC[C@H]7[C@@]6(C)O)[C@]5(O)C[C@@]42O[C@@]13O ?
103% (inactive)

Tell me the measured growth of CC[C@H](C)[C@H](NC(=O)[C@H]1CCCCN1C)C(=O)N(C)[C@H](C(=O)NC12CC(C(=O)N[C@@H](Cc3ccccc3)C[C@H](C)C(=O)OC)(C1)C2)C(C)C , please.
98.4% (inactive)

Query (compound): O=S1(=O)OCCO1 ; field requested: growth
96.3% (inactive)

* * *

- System: NCI-H460 lung
- Procedure details: NCI-60 one-dose screen, 48 h (100 = growth as untreated, 0 = no growth, -100 = all killed)
- Protocol conditions: 10 µM unless noted
- Description: Growth inhibition of the NCI-H460 human Non-Small Cell Lung tumor cell line is measured as a screen for anti-cancer activity. Cells are grown in 96 well plates and exposed to the test compound for 48 hours. Compounds are tested at a single concentration, which is 10^-5 M for most compounds. The reported endpoint is percent growth (GI% or GIPRCNT), where numbers from 0 - 100% represent growth inhibition, and numbers from -100% - 0 represent cell death. […]
About 83,000 compounds went through this panel and 20% of them were active in at least one assay; those are over-represented in the sample as a whole.
Observed property: growth (%)
Number only, in %; omit the unit.

>  <Compound>
Cc1cc(NC(=O)NCCCOc2ccc(N3C(N)=NC(N)=NC3(C)C)cc2Cl)ccc1S(=O)(=O)F

>  <Quantitative readout>
13.6

$$$$
>  <Compound>
O=C=Nc1ccc(Br)cc1

>  <Quantitative readout>
103

$$$$
>  <Compound>
CCCn1cc2c3c(cccc31)[C@H]1C[C@@H](C)CN(C)[C@@H]1C2

>  <Quantitative readout>
95.7

$$$$
>  <Compound>
S=P(SP(=S)(c1ccccc1)c1ccccc1)(c1ccccc1)c1ccccc1

>  <Quantitative readout>
107

$$$$
>  <Compound>
COc1cc(C2C3=C(CCCC3=O)N(CCO)c3cc4c(cc32)CCC4)cc(OC)c1OC (stereo not drawn)

>  <Quantitative readout>
36.4

$$$$

Item under review: [N-]=[N+]=CC(=O)CCC(=O)C=[N+]=[N-] . Reported growth?
112

Could you share which growth value was measured for C/C(=C(\c1ccc(OCCN2CCOCC2)cc1)c1ccc(OC(=O)Cc2ccccc2)cc1)c1ccc(Cl)cc1 ?
97.6

Name the reported growth value associated with the compound COc1ccc(N(CC(=O)NCCC[Te]c2ccccc2)C(=O)c2ccccc2)cc1
-1.52

Fill in the blank: the reported growth of C/C(=C\c1ccn(-c2ccc(N)cc2F)n1)[C@@H]1C[C@@H]2O[C@]2(C)CCC[C@H](C)[C@H](O)[C@@H](C)C(=O)C(C)(C)[C@@H](O)CC(=O)O1 is ____.
11

Need growth of C[C@]12CCC3[C@@H](C[C@@H]4SC(Nc5ccccc5)=N[C@@]45CC(=O)CC[C@]35C)[C@@H]1CCC2=O (stereo partly drawn) , thanks.
-13

// growth lookup, key: CN1CCN(c2ccc(Cl)cc2)CC1
44.6

Reported growth for CC[C@H](C)[C@H](NC(=O)c1ncccn1)C(=O)N(C)[C@H](C[C@@H](OC(C)=O)c1nc(C(=O)N[C@@H](Cc2ccccc2)C[C@H](C)C(=O)OC)cs1)C(C)C : what is it?
10.8

For the compound C[C@]12C[C@H](c3ccoc3)OC(=O)[C@H]1CC[C@@]1(C)[C@@H]2[C@H]2C=C[C@]1(O)C(=O)O2 , what growth is on record?
108

Entry CC/C(Cc1ccccc1)=C(\c1ccc(OCCN2CCCC2)cc1)c1ccc(OC(=O)NCc2ccccc2)cc1 has what growth?
-45.2

Which growth is reported for this compound? O=C(O)c1ccccc1N(CCO)CCCl
111

# get_value(readout='growth', item= CC[C@H](C)[C@H](NC(=O)[C@H]1CCCCN1C)C(=O)N(C)[C@H](C[C@@H](OC(C)=O)c1nc(C(=O)NC23C4C5C2C2C3C4C52C(=O)OC)cs1)C(C)C (stereo partly drawn) )
12.6

# query: growth of entry C=CCOC(=O)C(Br)CC (stereo not drawn)
104

# query: growth of entry CCCN1C(=O)NC(=O)C(CC)(N2C(=O)c3c(F)c(F)c(F)c(F)c3C2=O)C1=O (stereo not drawn)
-81
